system: Cryptococcus neoformans; assay: Concentration that substantially inhibit the growth of Cryptococcus neoformans; format: functional
Where a SMILES comes first, the peptide text is derived from it. [ ]: non-standard residue; d: D form.
metric.name: MIC (µM)
Answers are plain numbers, in µM.

compound	MIC (µM)
CC[C@H](C)[C@H](NC(=O)[C@@H](Cc1ccccc1)NC(=O)[C@@H](Cc1c[nH]c2ccccc12)NC(=O)[C@@H](N)CCCN=C(N)N)C(=O)N[C@H](Cc1ccccc1)C(=O)N[C@@H](Cc1c[nH]cn1)C(N)=O (H-R[dW][dF]I[dF]H-NH2)	6.86

We next turn to a different compound, shown below.
**Q:** Would you kindly share the measured MIC for CC[C@H](C)[C@H](NC(=O)[C@H](CCCCN)NC(=O)[C@H](CCCCN)NC(=O)[C@H](Cc1c[nH]cn1)NC(=O)[C@@H](Cc1ccccc1)NC(=O)[C@@H](NC(=O)[C@@H](Cc1ccccc1)NC(=O)[C@@H](Cc1c[nH]c2ccccc12)NC(=O)[C@@H](N)CCCN=C(N)N)[C@@H](C)CC)C(N)=O ?
**A:** 2.4

---

test system: Cryptococcus neoformans; assay: Concentration that substantially inhibit the growth of Cryptococcus neoformans; assay type: functional
For each of the compounds below, state its MIC.
Answers are plain numbers, in µM.

Known results for compounds:
1. CC[C@H](C)[C@H](NC(=O)[C@@H](Cc1ccccc1)NC(=O)[C@@H](Cc1c[nH]c2ccccc12)NC(=O)[C@@H](N)CCCN=C(N)N)C(=O)N[C@H](Cc1ccccc1)C(=O)N[C@@H](Cc1c[nH]cn1)C(=O)N[C@@H](CCCCN)C(=O)N[C@@H](CCCCN)C(=O)N[C@@H](CC(N)=O)C(N)=O 2.4
2. CC[C@H](C)[C@H](NC(=O)[C@@H](Cc1ccccc1)NC(=O)[C@@H](Cc1c[nH]c2ccccc12)NC(=O)[C@@H](N)CCCN=C(N)N)C(=O)N[C@H](Cc1ccccc1)C(=O)N[C@@H](Cc1c[nH]cn1)C(=O)N[C@@H](CCCCN)C(=O)N[C@@H](CCCN=C(N)N)C(=O)N[C@@H](Cc1ccccc1)C(N)=O 4.67

Kindly review the next compound as well.
**Q:** Entry CC[C@H](C)[C@H](NC(=O)[C@@H](Cc1ccccc1)NC(=O)[C@@H](Cc1c[nH]c2ccccc12)NC(=O)[C@@H](N)CCCN=C(N)N)C(=O)N[C@H](Cc1ccccc1)C(=O)N[C@@H](Cc1c[nH]cn1)C(=O)N[C@@H](CCCCN)C(=O)N[C@@H](CCCN=C(N)N)C(=O)N[C@@H](CC(C)C)C(N)=O : reported MIC = ?
**A:** 2.39

---

test system: Cryptococcus neoformans; assay: Concentration that substantially inhibit the growth of Cryptococcus neoformans; format: functional
Record form. Attribute: MIC. Fill in for each entry.
Numbers only, in µM.

1. CC[C@H](C)[C@H](NC(=O)[C@@H](Cc1ccccc1)NC(=O)[C@@H](Cc1c[nH]c2ccccc12)NC(=O)[C@@H](N)CCCN=C(N)N)C(=O)N[C@H](Cc1ccccc1)C(=O)N[C@@H](Cc1c[nH]cn1)C(=O)N[C@@H](CCCCN)C(=O)N[C@@H](CCCN=C(N)N)C(=O)N[C@@H](Cc1c[nH]cn1)C(N)=O 2.35

Take each entry in turn and give its MIC.
1. CC[C@H](C)[C@H](NC(=O)[C@@H](Cc1ccccc1)NC(=O)[C@@H](Cc1c[nH]c2ccccc12)NC(=O)[C@@H](N)CCCN=C(N)N)C(=O)N[C@H](Cc1ccccc1)C(=O)N[C@@H](Cc1c[nH]cn1)C(=O)N[C@@H](CCCCN)C(=O)N[C@@H](CCCN=C(N)N)C(=O)N[C@H](C(N)=O)C(C)C
2. CC[C@H](C)[C@H](NC(=O)[C@@H](Cc1ccccc1)NC(=O)[C@@H](Cc1c[nH]c2ccccc12)NC(=O)[C@@H](N)CCCN=C(N)N)C(=O)N[C@H](Cc1ccccc1)C(=O)N[C@@H](Cc1c[nH]cn1)C(=O)N[C@@H](CCCCN)C(=O)N[C@@H](CCCN=C(N)N)C(=O)N[C@@H](CCC(=O)O)C(N)=O
3. CC[C@H](C)[C@H](NC(=O)[C@@H](Cc1ccccc1)NC(=O)[C@@H](Cc1c[nH]c2ccccc12)NC(=O)[C@@H](N)CCCN=C(N)N)C(=O)N[C@H](Cc1ccccc1)C(=O)N[C@@H](Cc1c[nH]cn1)C(=O)N[C@@H](CCCCN)C(=O)N[C@@H](CCCCN)C(=O)N[C@@H](CCC(N)=O)C(N)=O
4. CC[C@H](C)[C@H](NC(=O)[C@@H](Cc1ccccc1)NC(=O)[C@@H](Cc1c[nH]c2ccccc12)NC(=O)[C@@H](N)CCCN=C(N)N)C(=O)N[C@H](Cc1ccccc1)C(=O)N[C@@H](Cc1c[nH]cn1)C(=O)N[C@@H](CCCCN)C(=O)N[C@@H](CCCCN)C(=O)N1CCC[C@H]1C(N)=O
5. CC[C@H](C)[C@H](NC(=O)[C@@H](Cc1ccccc1)NC(=O)[C@@H](Cc1c[nH]c2ccccc12)NC(=O)[C@@H](N)CCCN=C(N)N)C(=O)N[C@H](Cc1ccccc1)C(=O)N[C@@H](Cc1c[nH]cn1)C(=O)N[C@@H](CCCCN)C(=O)N[C@@H](CCCN=C(N)N)C(=O)N[C@@H](C)C(N)=O
6. CC[C@H](C)[C@H](NC(=O)[C@@H](Cc1ccccc1)NC(=O)[C@@H](Cc1c[nH]c2ccccc12)NC(=O)[C@@H](N)CCCN=C(N)N)C(=O)N[C@H](Cc1ccccc1)C(=O)N[C@@H](Cc1c[nH]cn1)C(=O)N[C@@H](CCCCN)C(=O)N[C@@H](CCCN=C(N)N)C(=O)N[C@H](C(N)=O)[C@@H](C)O

**A:**
1: 4.85; 2: 4.74; 3: 2.37; 4: 2.43; 5: 4.96; 6: 4.84
